Test system: mice
Test: tetrabenazine (TBZ) induced ptosis assay (antidepressant activity)
Format: in vivo, mice (male, Charles River, CD-1)
Conditions: Mus musculus, ip; read-out: TBZ ED50
Listing of entries alongside the reported ED50.

- Fc1c(F)c(F)c(OC2(c3ccc(Cl)cc3)CCNCC2)c(F)c1F.O=C(O)/C=C/C(=O)O: 20 mg/kg
- Fc1ccccc1C1(Oc2c(F)c(F)c(F)c(F)c2F)CCNCC1.O=C(O)/C=C\C(=O)O: 6.4 mg/kg
- Cc1ccc(C2(Oc3c(F)c(F)c(F)c(F)c3F)CCNCC2)cc1.O=C(O)/C=C\C(=O)O: 8.3 mg/kg
- CN1CCC(Oc2c(F)c(F)c(F)c(F)c2F)CC1: 4.7 mg/kg
- CN(C)CCC=C1c2ccccc2CCc2ccccc21 [amitriptyline, reference compound]: 1.5 mg/kg
- Fc1c(F)c(F)c(OC2(c3ccccc3)CCNCC2)c(F)c1F.O=C(O)/C=C\C(=O)O: 1 mg/kg

Challenge: Fill in the blank: the reported ED50 of Cl.Fc1ccc(C2(Oc3c(F)c(F)c(F)c(F)c3F)CCNCC2)cc1 is ____.
Response given: 4.8 mg/kg
